meta.source: the RNAGym collection of RNA variant scans (doi:10.1073/pnas.2313332121)

B1: TPR 5TU (parent)
chain: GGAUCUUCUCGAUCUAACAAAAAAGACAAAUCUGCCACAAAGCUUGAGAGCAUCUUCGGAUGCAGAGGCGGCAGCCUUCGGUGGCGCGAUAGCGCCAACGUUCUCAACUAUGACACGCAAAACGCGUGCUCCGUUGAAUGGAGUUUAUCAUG

variants of: B1; assay: polymerase ribozyme fitness, log enrichment relative to wild type (log ratio); higher = more active; in vitro selection for triplet polymerase activity
Fewer inactive variants are shown than the library holds.
Overview of reported polymerase ribozyme fitness (log ratio) across a group of variants:
Recorded Endpoint: polymerase ribozyme fitness (log ratio)

Mutant Id	Reported Result
U45A C114U	-4.01
A12U A47G C76A C85G	-3.78
U6A C14U G65U A91G U148A	≤ -4.2
C5A C57U G59C C96G U101G	-0.41
G86C C99U	-2.83
C63A C79U G94C A119G	≤ -4.2
A37C G70U C96G	≤ -4.2
A21U A60G	0.987
A73U G83C C123G	-2.93
G50A C75U G83U C93U G141A	≤ -4.2
A37U A89U U146A	-1.62
